TARGET_OR_SYSTEM: recombinant human PAD4 (human, UniProt Q9UM07 1-663)
Sequence (Q9UM07 whole entry): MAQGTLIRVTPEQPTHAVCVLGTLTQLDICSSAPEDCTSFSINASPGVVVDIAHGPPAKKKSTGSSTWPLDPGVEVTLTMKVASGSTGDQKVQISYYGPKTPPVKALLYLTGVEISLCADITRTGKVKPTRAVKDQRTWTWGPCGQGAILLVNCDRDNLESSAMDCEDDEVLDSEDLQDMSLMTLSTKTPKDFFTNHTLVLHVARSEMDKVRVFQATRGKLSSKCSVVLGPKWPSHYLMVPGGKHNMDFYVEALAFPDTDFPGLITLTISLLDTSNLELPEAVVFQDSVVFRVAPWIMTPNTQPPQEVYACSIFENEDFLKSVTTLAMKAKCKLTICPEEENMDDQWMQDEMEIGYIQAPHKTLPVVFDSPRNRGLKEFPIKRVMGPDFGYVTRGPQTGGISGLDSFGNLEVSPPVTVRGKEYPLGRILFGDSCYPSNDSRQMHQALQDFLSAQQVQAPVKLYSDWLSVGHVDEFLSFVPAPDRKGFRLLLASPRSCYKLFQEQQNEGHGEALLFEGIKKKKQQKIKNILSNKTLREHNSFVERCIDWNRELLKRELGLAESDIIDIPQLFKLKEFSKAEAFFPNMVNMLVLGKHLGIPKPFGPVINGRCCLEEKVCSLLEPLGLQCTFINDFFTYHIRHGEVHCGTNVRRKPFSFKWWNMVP
ASSAY_NOTES: cell-based or functional assay
Square brackets hold non-standard residues; d marks the D form. * marks the point of attachment. Orn(fluoroacetimidoyl) = N=C(CF)NCCC[C@H](N)C(=O)O; 2Naphthylsulfonyl = O=S(=O)(c1ccc2ccccc2c1)*; AEEA = NCCOCCOCC(=O)O
READOUT_NAME: Inhibition of PAD4: value at 80 µM inhibitor (0 µM: 71) (%)
Enter your answer as a number in %; do not include the unit.

Record 2Naphthylsulfonyl-KFD[Orn(fluoroacetimidoyl)]DFI[AEEA]-NH2 (SMILES CC[C@H](C)[C@H](NC(=O)[C@H](Cc1ccccc1)NC(=O)[C@H](CC(=O)O)NC(=O)[C@H](CCCNC(=N)CF)NC(=O)[C@H](CC(=O)O)NC(=O)[C@H](Cc1ccccc1)NC(=O)[C@H](CCCCN)NS(=O)(=O)c1ccc2ccccc2c1)C(=O)NCCOCCOCC(N)=O) [0837-27FA] , field Inhibition of PAD4: value at 80 µM inhibitor (0 µM: 71): 7

Quick note, Inhibition of PAD4: value at 80 µM inhibitor (0 µM: 71) for Ac-KFD[Orn(fluoroacetimidoyl)]DFI-NH2 (SMILES CC[C@H](C)[C@H](NC(=O)[C@H](Cc1ccccc1)NC(=O)[C@H](CC(=O)O)NC(=O)[C@H](CCCNC(=N)CF)NC(=O)[C@H](CC(=O)O)NC(=O)[C@H](Cc1ccccc1)NC(=O)[C@H](CCCCN)NC(C)=O)C(N)=O) [0743-58FA] landed at 13

Consider 2Naphthylsulfonyl-KFD[Orn(fluoroacetimidoyl)]DFI-NH2 [0837-29FA] . Its measured Inhibition of PAD4: value at 80 µM inhibitor (0 µM: 71) is 5

meta.source: patent US20110142868A1
